# System: Ba/F3-EGFR ins. SVD cells
# experimental_protocol: Cell proliferation suppression test (CellTiter-Glo, GI50), Ba/F3-EGFR ins. SVD
# Type: cell-based
# assay_setup: Mus musculus, 72 h, 3 days, N=4
measurement_label: GI50 (nM)

# mol, GI50 / nM
rows = [
    ("COc1cc2ncnc(Nc3ccc(Oc4nn(CC(=O)NC(C)(C)C)cc4F)cc3F)c2cc1NC(=O)/C=C/CN1CC(F)C1", 7.4),
]

(a) C=CC(=O)N1CCC(Oc2cc3c(Nc4ccc(Oc5nc(-c6cnc(C)nc6)cs5)cc4F)ncnc3cc2OC)CC1
(b) C=CC(=O)N1CCC(Oc2cc3c(Nc4ccc(Oc5ccn(-c6ccnc(OC)c6)n5)cc4F)ncnc3cc2OC)CC1
(c) COc1cc2ncnc(Nc3ccc(Oc4nn(CC(=O)NC(C)(C)C)cc4F)cc3Cl)c2cc1NC(=O)/C=C/CN1CC[C@H](F)C1
Hey, can you sort those molecules up there by GI50, smallest first? # the answer lists labels in the order requested
c, a, b

====

The compounds listed here are annotated with their GI50.
# Test system: Ba/F3-Mock cells
# experimental_protocol: Cell proliferation suppression test (CellTiter-Glo, GI50), Ba/F3-Mock
# Type: cell-based
# assay_setup: Mus musculus, BaF3, 72 h, 5 ng/mL IL-3, 3 days, N=4
Report the figure in nM without appending any unit label.

Study these solved cases before continuing.
# compound, uom, numeric_value
records = [
    ("C=CC(=O)N1CCC(Oc2cc3c(Nc4ccc(Oc5ccn(C(=O)N[C@H](C)C(F)(F)F)n5)cc4F)ncnc3cc2OC)CC1 [Example 24]", "nM", 6470),
    ("COc1cc2ncnc(Nc3ccc(Oc4cccc(-c5nnc(C)o5)c4)cc3F)c2cc1NC(=O)/C=C/CN1CCCC1 [Example 50]", "nM", 750),
    ("COc1cc2ncnc(Nc3ccc(Oc4nc(C(=O)NC(C)(C)C)cs4)cc3F)c2cc1NC(=O)/C=C/CN(C)C [Example 47]", "nM", 816),
    ("COc1cc2ncnc(Nc3ccc(Oc4cccc(-c5nnc(C)o5)c4)cc3F)c2cc1NC(=O)/C=C/CN(C)C [Example 39]", "nM", 1150),
    ("C=CC(=O)N1CCC(Oc2cc3c(Nc4ccc(Oc5cccc(-c6nnc(C)o6)c5)cc4F)ncnc3cc2OCF)CC1 [Example 19]", "nM", 4920),
]

Give recorded GI50 with Ba/F3-Mock cells for the following compound: C=CC(=O)N1CCC(Oc2cc3c(Nc4ccc(Oc5ccn(C(=O)NC(C)(CF)CF)n5)cc4F)ncnc3cc2OC)CC1 [Example 23]
5530

What is its GI50 for Ba/F3-Mock cells? Entry: C=CC(=O)N1CCC(Oc2cc3c(Nc4ccc(Oc5cccc(-c6cn(C)nn6)c5)cc4Cl)ncnc3cc2OC)CC1 [Example 3]
9930

Record lookup: for Ba/F3-Mock cells, what GI50 belongs to COc1cc2ncnc(Nc3ccc(Oc4nn(CC(=O)NC(C)(C)C)cc4F)cc3F)c2cc1NC(=O)/C=C/CN(C)C [Example 46] ?
3090

What is its GI50 for Ba/F3-Mock cells? Entry: COc1cc2ncnc(Nc3ccc(Oc4nn(CC(=O)NC(C)(C)C)cc4F)cc3Cl)c2cc1NC(=O)/C=C/CN1CCC(F)C1 (racemic) [Example 55]
4290

Which GI50 is reported with Ba/F3-Mock cells for this entry: C=CC(=O)N1CCC(Oc2cc3c(Nc4ccc(Oc5cccc(-c6nnc(C)o6)c5)cc4F)ncnc3cc2OCC)CC1 [Example 18] ?
4660

What reported GI50 corresponds to COc1cc2ncnc(Nc3ccc(Oc4cccc(-c5nnc(C(C)C)o5)c4)cc3F)c2cc1NC(=O)/C=C/CN(C)C [Example 43] on Ba/F3-Mock cells?
806

Recall the recorded GI50 for COc1cc2ncnc(Nc3ccc(Oc4ccn(C(=O)N5CCCC5)n4)cc3F)c2cc1NC(=O)/C=C/CN(C)C [Example 26] with Ba/F3-Mock cells and state it.
1060

Requested read-out GI50, target or system Ba/F3-Mock cells, entry CCOc1cc2ncnc(Nc3ccc(Oc4cccc(-c5nnc(C)o5)c4)cc3F)c2cc1NC(=O)/C=C/CN(C)C [Example 40]
765

Form field - read-out: GI50; system: Ba/F3-Mock cells; submitted item: COc1cc2ncnc(Nc3ccc(Oc4nn(CC(=O)NC(C)(C)C)cc4F)cc3Cl)c2cc1NC(=O)/C=C/CN1CC[C@H](F)C1 [Example 57]
5090

Recall the recorded GI50 for C=CC(=O)N1CCC(Oc2cc3c(Nc4ccc(Oc5ccn(-c6cnc(OC)nc6)n5)cc4F)ncnc3cc2OC)CC1 [Example 14] with Ba/F3-Mock cells and state it.
5950

GET /values?readout=GI50&system=Ba/F3-Mock cells&item= C=CC(=O)N1CCC(Oc2cc3c(Nc4ccc(Oc5cccc(-c6nnc(C)o6)c5)cc4Cl)ncnc3cc2OC)CC1 [Example 13]
8280

I'm curious: which GI50 was measured for CCOc1cc2ncnc(Nc3ccc(Oc4cccc(-c5nnc(CC)o5)c4)cc3F)c2cc1NC(=O)/C=C/CN(C)C [Example 42] tested on Ba/F3-Mock cells?
764

Kindly state the measured GI50 obtained for COc1cc2ncnc(Nc3ccc(Oc4nn(CC(=O)NC(C)(C)C)cc4F)cc3F)c2cc1NC(=O)/C=C/CN1CC(OC)C1 [Example 60] with Ba/F3-Mock cells.
6030

Form: Entry = COc1cc2ncnc(Nc3ccc(Oc4nn(CC(=O)NC(C)(C)C)cc4F)cc3Cl)c2cc1NC(=O)/C=C/CN1CC[C@@H](F)C1 [Example 56] | System = Ba/F3-Mock cells | GI50 = ____
4680

====

# Test system: Ba/F3-Mock cells
# experimental_protocol: Cell proliferation suppression test (CellTiter-Glo, GI50), Ba/F3-Mock
# Assay type: cell-based
# assay_setup: Mus musculus, BaF3, 72 h, 5 ng/mL IL-3, 3 days, N=4
measurement_label: GI50 (nM)
Give your result in nM as a bare value.

// GI50 lookup, key: COc1cc2ncnc(Nc3ccc(Oc4nn(CC(=O)NC(C)(C)C)cc4F)cc3F)c2cc1NC(=O)/C=C/CN1CCC(F)C1 (racemic)
4010

Tell me the measured GI50 of `CCOc1cc2ncnc(Nc3ccc(Oc4cccc(-c5nnc(C)o5)c4)cc3F)c2cc1NC(=O)/C=C/CN[C@H]1CCOC1` , please.
2840

====

# Test system: Ba/F3-EGFR WT cells
# experimental_protocol: Cell proliferation suppression test (CellTiter-Glo, GI50), Ba/F3-EGFR WT
# Type: cell-based
# assay_setup: Mus musculus, 72 h, 100 ng/mL EGF, 3 days, N=4
measurement_label: GI50 (nM)

Use the examples below as a reference point.
# mol, GI50, nM
records = [
    ("C=CC(=O)N1CCC(Oc2cc3c(Nc4ccc(Oc5nc(-c6ccc(C)nc6)cs5)cc4F)ncnc3cc2OC)CC1", 163),
    ("COc1cc2ncnc(Nc3ccc(Oc4nc(C(=O)NC(C)(C)C)cs4)cc3F)c2cc1NC(=O)/C=C/CN(C)C", 145),
    ("C=CC(=O)N1CCC(Oc2cc3c(Nc4ccc(Oc5ccn(-c6ccnc(F)c6)n5)cc4F)ncnc3cc2OC)CC1", 121),
    ("CCOc1cc2ncnc(Nc3ccc(Oc4cccc(-c5nnc(C)o5)c4)cc3F)c2cc1NC(=O)/C=C/CN(C)C", 80.1),
    ("C=CC(=O)N1CCC(Oc2cc3c(Nc4ccc(Oc5nc(C(=O)NC(C)(C)C)cs5)cc4F)ncnc3cc2OC)CC1", 77.3),
]

(P) C=CC(=O)N1CCC(Oc2cc3c(Nc4ccc(Oc5ccn(-c6ccnc(OC)c6)n5)cc4F)ncnc3cc2OC)CC1
(Q) C=CC(=O)N1CCC(Oc2cc3c(Nc4ccc(Oc5cccc(-c6nnc(C)o6)c5)cc4F)ncnc3cc2OCC)CC1
Hi there, can you help? I need to know whether P or Q has lower measured GI50. Respond with the label that goes with your answer.
Q
(Q: 158 nM, P: 280 nM)

(I) C=CC(=O)N1CCC(Oc2cc3c(Nc4ccc(Oc5ccn(C(=O)NC(C)(CF)CF)n5)cc4F)ncnc3cc2OC)CC1
(II) [2H]C([2H])([2H])C(NC(=O)n1ccc(Oc2ccc(Nc3ncnc4cc(OC)c(OC5CCN(C(=O)C=C)CC5)cc34)c(F)c2)n1)(C([2H])([2H])[2H])C([2H])([2H])[2H]
Hi, I'm comparing I with II and wondering which one has the bigger number for GI50. Any idea? Your answer should be the label attached to the chosen record.
II

(A) COc1cc2ncnc(Nc3ccc(Oc4nn(CC(=O)NC(C)(C)C)cc4F)cc3Cl)c2cc1NC(=O)/C=C/CN1CC[C@@H](F)C1
(B) COc1cc2ncnc(Nc3ccc(Oc4nc(-c5nnc(C6CC6)o5)cs4)cc3F)c2cc1NC(=O)/C=C/CN1CC[C@@H](OC)C1
// returns A or B , whichever has the lower GI50 Answer with the label corresponding to your selection.
B
(B: 129 nM, A: 635 nM)

(a) C=CC(=O)N1CCC(Oc2cc3c(Nc4ccc(Oc5ccn(-c6cnc(C)c(F)c6)n5)cc4F)ncnc3cc2OC)CC1
(b) C=CC(=O)N1CCC(Oc2cc3c(Nc4ccc(Oc5cccc(C(=O)NC(C)(C)C)c5)cc4F)ncnc3cc2OC)CC1
Looking only at measured GI50, which entry is lower, a or b ? Indicate your choice by writing its label.
b
(b: 115 nM, a: 249 nM)
